System: WT Max(13-93) synthetic (M65Nle)
protocol_notes: PBM 8-mer E-score (E-score (rank enrichment, -0.5 to 0.5)); higher = stronger preferential binding
The full ranking holds about 33,000 sequences; the median of “E-score (rank enrichment, -0.5 to 0.5)” is about -0.0075, and the highest 2% start at about 0.23. Shown is part of a subset that was picked to be rich in the highest values.
Everything with PBM 8-mer E-score lower than 0.2 is false; everything else, including exactly 0.2, is true.

Illustrative cases are given below, each with its answer.
{"sequence_content": "CGTGTATA", "class_assignment": "true"}
{"sequence_content": "CAGGAATC", "class_assignment": "false"}
{"sequence_content": "ATATACAG", "class_assignment": "true"}
{"sequence_content": "TGAGCTCA", "class_assignment": "false"}

Q: Given CGTGTAAC , state whether its PBM 8-mer E-score is at least 0.2.
Result: true

// provenance: the supplement of paper PMC12636033
